Reference for the values: patent EP4793277A1

System: CYP3A4/5
protocol description: Inhibitory activity on CYP isoenzymes at a single concentration (liver microsomes)
Format: in vitro ADME
experimental conditions: pH 7.4, probe testosterone; Final compound concentration: 10 µM; human liver microsomes; substrate Testosterone; read-out: Inhibition rate (%) CYP3A4/5 (Testosterone)
Measured inhibition at 10 min, 10 µM of individual entries
quantity kind: inhibition at 10 min, 10 µM (%)

{"test smiles": "[2H]C([2H])([2H])Oc1nc(C(=O)O)ccc1NCC#Cc1cc2c(N[C@@H]3CCN(C)C[C@@H]3F)cccn2c1CC(F)(F)F", "quantity kind": "inhibition at 10 min, 10 µM", "comparator": "<", "result number": 0}
{"test smiles": "COc1nc(C(=O)O)ccc1NCC#Cc1cc2c(N[C@@H]3CCN(C)C[C@@H]3F)cccn2c1CC(F)(F)F", "quantity kind": "inhibition at 10 min, 10 µM", "comparator": "=", "result number": 1.7}
{"test smiles": "COc1cc(S(C)(=O)=O)ccc1NCC#Cc1nc2c(N[C@@H]3CCN(C)C[C@@H]3F)cccn2c1CC(F)(F)F", "quantity kind": "inhibition at 10 min, 10 µM", "comparator": "=", "result number": 75}
